test: E. coli acrAB mutant growth effects, primary screen, E. coli filamentation inducers, strain DRC39, OD650, 24 h (AID 1178); conditions: higher = more signal, called active from +8 up or from −8 down;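 note: growth measured as culture turbidity by optical density at 650 nm; test concentration not given here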

compound	z-score
CN(C)CCCC[C@@H]1NC(=O)[C@@H]2C[C@H](C(=O)NCCCCCNC(=O)CS)[C@H](c3ccc(O)cc3)N2C1=O	0.964
CO[C@H]1COC(=O)[C@@H](C)COC(=O)[C@H](Cc2ccccc2)NC(=O)CC=C[C@H]1C	0.586
C=C(COC)/C(=C/C[C@H](OC(C)=O)c1ccc(OCCO)cc1)c1cnc2ccccc2c1	1.2
O=C(CS)NCCCCCNC(=O)[C@H]1C[C@H]2C(=O)N[C@@H](Cc3ccccc3)C(=O)N2[C@H]1c1ccc(O)cc1	0.394
C=CCC(OC(C)=O)[C@@H]1[C@@H](N(Cc2cccc3ccccc23)C(=O)Cc2ccc(F)cc2)c2cc(OCCCO)ccc2N1C(=O)Cc1ccc2ccccc2c1 (some centres not stated)	-0.283
CC(c1ccccc1)C(O)C1C=CC2C(=O)N(C)C(=O)C2N1N(c1ccccc1)c1ccccc1 (configuration not stated)	-0.502
COCCOC(=O)N1C(=O)[C@@]2(c3cc(C#CC4=CCCCC4)ccc31)[C@H](c1ccc(O)cc1)N1[C@H](c3ccccc3)[C@H](c3ccccc3)OC(=O)[C@H]1[C@@H]2C(=O)N1CCCCCCC1	0.15
